- procedure_details: viability loss of HPDE-C7K cells – cell-based, fluorescence, HTS, primary screen (AID 431);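 further: 0% = DMSO solvent wells and 100% = doxorubicin-treated wells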
- conditions: HPDE-C7K KRASV12 cells, Alamar Blue viability, 48 h; at 10 µM; stronger effect = higher value
Among all 63,000 compounds or so, about 1,100 (1.7%) were called active. The full list was thinned out, with actives kept by preference. Measured potencies and affinities stand elsewhere.
The following compounds are shown together with reported cytotoxicity values.
Just the number please, in %, no unit attached.

Field: example entries. Status: answers known.
{"sample_smiles": "COc1c(C)cc(Br)cc1C(=O)Nc1ccc(N2CCN(S(C)(=O)=O)CC2)cc1", "unit": "%", "cytotoxicity": 1.2}
{"sample_smiles": "O=C(NCC1(N2CCOCC2)CCCCC1)c1ccc(Cl)c(S(=O)(=O)NCc2ccco2)c1", "unit": "%", "cytotoxicity": -5.8}
{"sample_smiles": "Cc1onc(-c2ccccc2Cl)c1C(N)=O", "unit": "%", "cytotoxicity": 8}
{"sample_smiles": "Cc1cc(=O)[nH]c(-n2nc(C)cc2C)n1", "unit": "%", "cytotoxicity": -16}
{"sample_smiles": "Cc1cc(Nc2ccccc2)n(-c2nc3ccccc3[nH]2)n1", "unit": "%", "cytotoxicity": 1.5}
{"sample_smiles": "Cc1ccc(S(=O)(=O)Cc2ccc(C(=O)N3CCN(c4cc(C)ccc4C)CC3)o2)cc1", "unit": "%", "cytotoxicity": 20.6}
{"sample_smiles": "O=C(Cc1cc(=O)[nH]c(=O)[nH]1)N1CCN(C(=O)c2ccco2)CC1", "unit": "%", "cytotoxicity": 7.1}
{"sample_smiles": "Cc1ccc(Nc2cc(C)nn2-c2nc(C)cc(=O)[nH]2)cc1", "unit": "%", "cytotoxicity": 101}

INPUT: Reported cytotoxicity for "Cc1ccccc1S(=O)(=O)Cc1ccc(C(=O)N2CCN(c3ccc(F)cc3)CC2)o1" : what is it?
OUTPUT: 3.3

INPUT: Field request: cytotoxicity | item: "Cc1ccccc1S(=O)(=O)Cc1ccc(C(=O)N2CCN(c3ncccn3)CC2)o1"
OUTPUT: -21.5

====

- procedure_details: viability loss of HPDE-C7K cells – cell-based, fluorescence, HTS, primary screen (AID 431);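 further: 0% = DMSO solvent wells and 100% = doxorubicin-treated wells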
- conditions: HPDE-C7K KRASV12 cells, Alamar Blue viability, 48 h; at 10 µM; stronger effect = higher value
The whole screen tested about 63,000 compounds, of which about 1,100 (1.7%) were called active. This excerpt belongs to a sample that is enriched for actives. Entries with a potency or affinity are not part of this list.
Listing of recorded cytotoxicity by entry.
State the answer as a number, implicitly in %.

Solved cases below.
{"compound": "Cc1ccc2c(c1)C(c1ccccc1)N(C(=O)c1ccc(Br)o1)CC(=O)N2 (stereo not drawn)", "unit": "%", "cytotoxicity": -13.7}
{"compound": "Cc1cnc(C(=O)Nc2ccccc2C(=O)N2CCOCC2)cn1", "unit": "%", "cytotoxicity": 1.7}
{"compound": "COc1ccc(CCNC(=O)c2ccncc2)cc1OC", "unit": "%", "cytotoxicity": -13.2}

INPUT: Given the compound "Cc1cccc2sc(NC(=O)CNS(=O)(=O)c3ccc(Br)s3)nc12" , what is its reported cytotoxicity?
OUTPUT: -11.6

INPUT: cytotoxicity for "CCn1c(COc2ccccc2)nnc1SCC(=O)C(C)(C)C" ?
OUTPUT: 16.4

====

cytotoxicity for assorted compounds
- procedure_details: viability loss of HPDE-C7K cells – cell-based, fluorescence, HTS, primary screen (AID 431);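 further: 0% = DMSO solvent wells and 100% = doxorubicin-treated wells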
- conditions: HPDE-C7K KRASV12 cells, Alamar Blue viability, 48 h; at 10 µM; stronger effect = higher value
About 1,100 (1.7%) of roughly 63,000 compounds were called active. Many of the other results were omitted from the sample, so actives are more common in it than they were. Potency and affinity values are given separately.
# number only, unit % dropped from output

{"compound": "O=C(Nc1ncc(Cc2ccccc2)s1)C1CCCO1 (stereo not given)", "cytotoxicity (%)": 6.8}
{"compound": "COc1ccc(-c2noc(COc3ccccc3OC)n2)cc1OC", "cytotoxicity (%)": -10.5}
{"compound": "Cc1ccc(C(=O)Nc2ncc(Cc3ccc(F)cc3)s2)o1", "cytotoxicity (%)": 61.5}
{"compound": "c1ccc(N2CCN(c3nnnn3-c3ccccc3)CC2)cc1", "cytotoxicity (%)": -3.6}

INPUT: What cytotoxicity value was documented for this compound, "O=S(=O)(NCc1ccccc1)c1cccc2nonc12" ?
OUTPUT: 4.4

INPUT: Fill in: cytotoxicity of "Cc1ccc(C(=O)Nc2ncc(Cc3ccccc3)s2)o1" is ___
OUTPUT: 51.3

INPUT: Can you look up the measured cytotoxicity of "N=c1cc(C2(O)CCCCC2)n2c(nc3ccccc32)s1" for me?
OUTPUT: 59

INPUT: Dear colleague, I am looking for the recorded cytotoxicity of the following compound: "O=[n+]1c2c(n([O-])c3cc(F)ccc31)CCCC2"
OUTPUT: 0.3

INPUT: I would be grateful if you could share the reported cytotoxicity for "O=C(Nc1ccccc1C(F)(F)F)c1cc(S(=O)(=O)N2CCOCC2)ccc1F" .
OUTPUT: 24.1

INPUT: # get_value(readout='cytotoxicity', item= "O=S(=O)(Nc1ccc(S(=O)(=O)N2CCCCC2)cc1)c1cccs1" )
OUTPUT: -10.1

INPUT: # query: cytotoxicity of entry "CCN(CC(=O)NC1CCCCC1)S(=O)(=O)c1ccc(Cl)cc1"
OUTPUT: -13.6

INPUT: Recorded cytotoxicity for "COc1ccc(CCNC(=O)c2cnccn2)cc1" , please?
OUTPUT: -0.7

INPUT: Entry "FC(F)(F)c1cccc(-c2ccc(-c3csnn3)o2)c1" has what cytotoxicity?
OUTPUT: -13.4

INPUT: What value of measured cytotoxicity is listed for "O=C(Nc1nccs1)Oc1ccccc1" ?
OUTPUT: 0.7

INPUT: Recorded cytotoxicity for "COc1ccc(-c2noc(COc3ccc(C)c(C)c3)n2)cc1OC" , please?
OUTPUT: 4.5

INPUT: State the recorded cytotoxicity for this entry: "Cc1nnc(SCC(=O)Nc2ncc(Cc3ccc(F)cc3)s2)n1N"
OUTPUT: -4.8

INPUT: I am curious: what cytotoxicity value has been reported for "CC(C)(O)c1cc(=O)sc2nc3ccccc3n12" ?
OUTPUT: -10.2

====

- procedure_details: viability loss of HPDE-C7K cells – cell-based, fluorescence, HTS, primary screen (AID 431);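 further: 0% = DMSO solvent wells and 100% = doxorubicin-treated wells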
- conditions: HPDE-C7K KRASV12 cells, Alamar Blue viability, 48 h; at 10 µM
Out of some 63,000 compounds screened, about 1,100 (1.7%) were called active.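 Rule for the calls: active = compounds whose percent cytotoxicity in the single-dose primary screen, scaled between solvent and toxic-drug controls, exceeds 50; inactive = the rest.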 Many of the other results were omitted from the sample, so actives are more common in it than they were. Results with a measured potency or affinity are listed apart.
I would appreciate it if you answered using one of these outcomes: 1.0 = active, 0.0 = inactive

Answered examples (5):
{"compound": "Brc1ccc(-c2nc(-c3ccncc3)no2)o1", "cat": 0.0}
{"compound": "CCOC(=O)c1c(NC(=O)CSc2nnc(CNc3ccc(F)cc3)o2)sc(C)c1C", "cat": 0.0}
{"compound": "Cc1ccc2c(c1)c1ncnc(N3CCN(c4ccccc4)CC3)c1n2C", "cat": 0.0}
{"compound": "CCc1cc(C)cc(OCCNC(=O)c2ncn[nH]2)c1", "cat": 0.0}
{"compound": "CCCNC(=O)Nc1cc(OCC)c(N2CCOCC2)cc1OCC", "cat": 0.0}

INPUT: Entry "Cn1c(=O)[nH]c(=O)c2c1nc(CN1CCN(c3cccc(Cl)c3)CC1)n2Cc1ccccc1Cl" : call = ?
OUTPUT: 0.0

INPUT: Please indicate how the test categorized "CC(C)c1ccc(O)c(N)c1" .
OUTPUT: 0.0

INPUT: Per the records of this test, what outcome belongs to "Cc1ccc(-c2csc3ncnc(-n4nc(C)cc4N)c23)cc1" ?
OUTPUT: 0.0

INPUT: Kindly provide the recorded test outcome for the following compound: "CCOc1ccc(CNC(=O)NS(=O)(=O)c2ccc(OC)cc2)cc1"
OUTPUT: 0.0

====

- procedure_details: viability loss of HPDE-C7K cells – cell-based, fluorescence, HTS, primary screen (AID 431);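 further: 0% = DMSO solvent wells and 100% = doxorubicin-treated wells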
- conditions: HPDE-C7K KRASV12 cells, Alamar Blue viability, 48 h; at 10 µM; stronger effect = higher value
Among all 63,000 compounds or so, about 1,100 (1.7%) were called active. For the sample, actives were picked, then their nearest neighbours and some compounds at random. Measured potencies and affinities stand elsewhere.
measured_quantity: cytotoxicity (%)
Answer format: numeric, % implied, no suffix.

The cases that follow already have their cytotoxicity on record.
{"compound": "Cc1cccc(-n2c(CNC(=O)c3ccc(S(=O)(=O)N4CCCC4)cc3)n[nH]c2=S)c1", "cytotoxicity (%)": -12}
{"compound": "N#Cc1nc(COc2ccccc2F)oc1N1CCCCCC1", "cytotoxicity (%)": -5.8}
{"compound": "c1ccc(Cn2nnnc2CN2CCN(Cc3ccc4c(c3)OCO4)CC2)cc1", "cytotoxicity (%)": -0.4}
{"compound": "C=CCOc1nc2c(c(=O)n(Cc3ccc(Cl)cc3)c(=O)n2C)n1C", "cytotoxicity (%)": -0.2}
{"compound": "O=C(Nc1nnc(C2CC2)o1)c1ccc(S(=O)(=O)N2CCCc3ccccc32)cc1", "cytotoxicity (%)": 60.6}

INPUT: Returns the measured cytotoxicity for the input compound. Input: "COc1ccc(OC)c(S(=O)(=O)n2nc(-c3ccccc3)cc2N)c1"
OUTPUT: -10.9

INPUT: Quick one: cytotoxicity for "Cc1nc2cc(C(F)(F)F)ccc2n1C1CCN(CC(=O)N2CCOCC2)CC1" ?
OUTPUT: -14.7

INPUT: Looking for the measured cytotoxicity of "Cc1ccc2c(c1)cc(CN(CCc1ccccc1)C(=O)N1CCOCC1)c1nnnn12" , can you help?
OUTPUT: -24.7

INPUT: # lookup: cytotoxicity of COc1ccc(OC)c(C2C(C(C)=O)=C(O)C(=O)N2CCN2CCOCC2)c1 (stereo not given)
OUTPUT: 3.1

INPUT: Query: cytotoxicity; subject: "COc1ccc(S(=O)(=O)n2nc(-c3cc(OC)c(OC)c(OC)c3)cc2N)cc1OC"
OUTPUT: 5.2
